Field: activity coefficient. Provide a value for each of the molecules that follow.
protocol: activity coefficient (dimensionless); of the first substance listed, at infinite dilution; xn = mol fraction of the nth substance listed
run.conditions: 333.15 K; 101.33 kPa; Liquid; Chromatography; x1 = 0
Just the number, please, no unit attached.

Prompt: Find the recorded activity coefficient belonging to CCCCCCCC [octane] + CCCCCCn1cc[n+](C)c1C.O=S(=O)([N-]S(=O)(=O)C(F)(F)F)C(F)(F)F and report it.
Completion: 10.6

Prompt: Next molecule up: CCCCCCC [heptane] + CCCCCCn1cc[n+](C)c1C.O=S(=O)([N-]S(=O)(=O)C(F)(F)F)C(F)(F)F
Completion: 9.47

Prompt: Next molecule up: CCOC(C)=O [ethyl acetate] + CCCCCCn1cc[n+](C)c1C.O=S(=O)([N-]S(=O)(=O)C(F)(F)F)C(F)(F)F
Completion: 0.88

Prompt: Next molecule up: C1=CCCCC1 [cyclohexene] + CCCCCCn1cc[n+](C)c1C.O=S(=O)([N-]S(=O)(=O)C(F)(F)F)C(F)(F)F
Completion: 3.19

Prompt: Next molecule up: ClCCl [dichloromethane] + CCCCCCn1cc[n+](C)c1C.O=S(=O)([N-]S(=O)(=O)C(F)(F)F)C(F)(F)F
Completion: 0.72

Prompt: Next molecule up: Cc1ccc(C)cc1 [1,4-dimethylbenzene] + CCCCCCn1cc[n+](C)c1C.O=S(=O)([N-]S(=O)(=O)C(F)(F)F)C(F)(F)F
Completion: 1.46

Prompt: Next molecule up: C1CCOC1 [tetrahydrofuran] + CCCCCCn1cc[n+](C)c1C.O=S(=O)([N-]S(=O)(=O)C(F)(F)F)C(F)(F)F
Completion: 0.53
